Test system: M14 melanoma
Assay: NCI-60 one-dose screen, 48 h (100 = growth as untreated, 0 = no growth, -100 = all killed)
Conditions: 10 µM unless noted
This is part of a sample that, as a whole, favours compounds with a hit. Of some 83,000 tested, about 20% had one in any assay.
Reported Property: growth (%)

[
  {
    "Compound": "Cn1cc(-c2csc(-c3cn(C)c4ncccc34)n2)c2cccnc21",
    "Unit Symbol": "%",
    "Assay Result": 96
  },
  {
    "Compound": "COc1cc([C@@H]2c3cc4c(cc3C(O[C@@H]3O[C@@H]5CO[C@@H](c6cccs6)OC5[C@H](O)[C@H]3O)C3COC(=O)[C@@H]32)OCO4)cc(OC)c1O (stereo not given in full)",
    "Unit Symbol": "%",
    "Assay Result": -43.2
  },
  {
    "Compound": "C/C(=C\\CCc1ccsc1)CC/C=C(\\C)CCCN1CCN(CCO)CC1",
    "Unit Symbol": "%",
    "Assay Result": 14.2
  },
  {
    "Compound": "COc1ccc(C(=O)Nc2nc(-c3ccc(Cl)cc3)cs2)cc1",
    "Unit Symbol": "%",
    "Assay Result": 113
  },
  {
    "Compound": "CCC(O)C(C)(C)C (stereo not given)",
    "Unit Symbol": "%",
    "Assay Result": 105
  }
]
